Protein target, amino acids: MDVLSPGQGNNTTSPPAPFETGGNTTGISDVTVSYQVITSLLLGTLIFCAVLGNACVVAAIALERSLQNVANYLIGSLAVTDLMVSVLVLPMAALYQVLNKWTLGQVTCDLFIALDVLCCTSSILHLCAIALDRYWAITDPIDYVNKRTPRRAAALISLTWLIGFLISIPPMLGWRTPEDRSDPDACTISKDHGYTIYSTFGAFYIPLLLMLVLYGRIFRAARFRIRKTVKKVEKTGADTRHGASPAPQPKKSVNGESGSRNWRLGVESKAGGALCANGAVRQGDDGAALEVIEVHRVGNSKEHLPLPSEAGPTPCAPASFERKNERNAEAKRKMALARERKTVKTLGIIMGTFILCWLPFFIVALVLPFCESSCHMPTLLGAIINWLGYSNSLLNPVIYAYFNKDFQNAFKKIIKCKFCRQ
ENDPOINT_NAME: Ki (nM)

Here are 8 molecules together with their reported answers.
Fc1ccc(-c2ccc(CN3CCN(c4cccc5ccoc45)CC3)[nH]2)cc1 [ELOPIPRAZOLE] : 1.5
Oc1nc2cccc(N3CCN(Cc4ccc(O)c(-c5ccccc5)c4)CC3)c2o1 : 7.6
c1ccc(-c2cccc(CN3CCN(c4cccc5c4CCCN5)CC3)c2)cc1 : 85
Cn1c(=O)oc2c(N3CCN(Cc4cccc(-c5ccccc5)c4)CC3)cccc21 : 130
Oc1nc2cccc(N3CCN(Cc4cccc(-c5ccsc5)c4)CC3)c2o1 : 17
N#Cc1cccc(-c2cccc(CN3CCN(c4cccc5nc(O)oc45)CC3)c2)c1 : 23
Cc1cccc(-c2cccc(CN3CCN(c4cccc5[nH]c(=O)oc45)CC3)c2)c1 : 35
Oc1nc2cccc(N3CCN(Cc4cccc(-c5ccc(F)cc5)n4)CC3)c2o1 : 200

P. N#Cc1ccccc1-c1cccc(CN2CCN(c3cccc4nc(O)oc34)CC2)c1
Q. c1ccc(-c2cccc(CN3CCN(c4cccc5c4OCO5)CC3)c2)cc1
**Query** I need your help: which of the pair P , Q has higher Ki? Your choice should be expressed through its label.
**Result** P

a. COc1cccc(-c2cccc(CN3CCN(c4cccc5[nH]c(=O)oc45)CC3)c2)c1
b. COc1ccccc1N1CCN(CCNC(=O)c2ccc(F)cc2)CC1
**Query** Form: Entry with minimum Ki (choose one): a / b Your choice should be expressed through its label.
**Result** b

FYI, the data here is from ChEMBL document CHEMBL1133937.
